This collection of values is drawn from patent US20190367516A1.

target: human M2 receptor (Homo sapiens, UniProt P08172)
Sequence (P08172 1-466): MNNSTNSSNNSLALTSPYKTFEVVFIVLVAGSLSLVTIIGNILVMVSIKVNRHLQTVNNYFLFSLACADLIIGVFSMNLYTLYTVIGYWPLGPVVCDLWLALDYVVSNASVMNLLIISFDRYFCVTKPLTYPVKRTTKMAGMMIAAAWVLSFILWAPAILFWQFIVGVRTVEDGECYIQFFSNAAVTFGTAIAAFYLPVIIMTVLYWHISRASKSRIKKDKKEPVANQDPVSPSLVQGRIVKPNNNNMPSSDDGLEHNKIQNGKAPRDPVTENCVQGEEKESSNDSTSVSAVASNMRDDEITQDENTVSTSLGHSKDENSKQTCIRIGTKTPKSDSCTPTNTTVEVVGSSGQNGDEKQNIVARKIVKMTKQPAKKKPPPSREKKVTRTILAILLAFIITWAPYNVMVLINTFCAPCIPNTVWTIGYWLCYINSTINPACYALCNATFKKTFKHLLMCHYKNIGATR
recorded conditions: Receptor activity EC50, M2-GIRK1/4 activation test, acetylcholine at EC20; allosteric potency; in some cases mean values from two or more determinations
Criterion: EC50 strictly under 40 nM. Met: yes (1). Not met: no (0).

Reference set (3 entries):
| compound | target | class assignment |
| --- | --- | --- |
| C[C@@H]1CN(c2ccc3c(=O)c(C(=O)N[C@@H](C)COC(F)(F)F)cn(-c4c(F)cc(F)cc4F)c3n2)C(=O)N1 | human M2 receptor (Homo sapiens, UniProt P08172) | yes (1) |
| O=C(NC(c1ccccc1Cl)C(F)(F)F)c1cn(-c2ccc(F)cc2F)c2nc(N3C[C@@H](O)CC3=O)ccc2c1=O (single isomer, unassigned) [Example 213] | human M2 receptor (Homo sapiens, UniProt P08172) | yes (1) |
| C[C@@H]1C[C@H](F)CN1c1ccc2c(=O)c(C(=O)NC34CC5CC(CC(C5)C3)C4)cn(-c3ccc(F)cc3F)c2n1 | human M2 receptor (Homo sapiens, UniProt P08172) | no (0) |

input: Lab log: compare recorded EC50 with 40 nM; is it strictly lower for C[C@H](NC(=O)c1cn(-c2c(F)cc(F)cc2F)c2nc(N3CC4CC4(O)C3)ccc2c1=O)C(F)(F)F (single isomer, unassigned) [Example 317] ?
output: yes (1)
